Source of measurements: paper PMC7473865

Target: recombinant HLA-DR401 (HLA-DRA1*01:01, HLA-DRB1*04:01) (Homo sapiens, UniProt P01903+P01911, A100K/A169T/F76Y/I96L/K127E/L162R/M171V/N62H/P40V/Q125Y/R42H/S133A/S149N/S66Y/V115G/V209L/W38E)
Construct: poly-histidine (C); made in house; host or cells: High Five (Hi5) insect cells, baculovirus (pAcGP67a)
Assay: biochemical
Format: binding
Conditions: read-out: Measured IC50
pIC50: −log10 of the molar value.
endpoint.name: pIC50

Request the reported pIC50 associated with CSCC[C@H](NC(=O)[C@H](CO)NC(=O)[C@H](Cc1ccccc1)NC(=O)[C@H](CC(N)=O)NC(=O)[C@H](C)NC(=O)[C@@H](NC(=O)[C@H](Cc1ccccc1)NC(=O)CNC(=O)[C@H](Cc1ccc(O)cc1)NC(=O)[C@H](CCCNC(=N)N)NC(=O)[C@H](Cc1ccc(O)cc1)NC(=O)[C@H](Cc1ccccc1)NC(=O)[C@H](Cc1ccccc1)NC(=O)[C@@H](N)CO)C(C)C)C(=O)N[C@@H](CCC(=O)O)C(=O)O
< 4.30
